# Tested on: rat BT4C glioma cells
# EXPERIMENTAL PROTOCOL: 2-Compartment model, subcutaneous model
# Assay type: in vivo, Foxn1^nu/nu mouse
# ASSAY CONTEXT: Flank tumor average (n = 6); arterial blood input
OBSERVATION TYPE: 2-Compartment Vb (%)
Answers are plain numbers, in %.

GET /value?item= NC(=O)[C@H]([18F])C[C@H](N)C(=O)O [[^18F]FGln, (2S, 4R)-4-[^18F]fluoroglutamine] &field=2-Compartment Vb returns 5.59

---

# System: patient-derived BT3 glioma cells
# EXPERIMENTAL PROTOCOL: 2-Compartment model, orthotopic model
# Assay type: in vivo, BALB/cOlaHsd-Foxn1^nu mouse
# ASSAY CONTEXT: Subject A glioma max.; plasma-corrected input
OBSERVATION TYPE: 2-Compartment Vb (%)
Give bare numbers, in %.

GET /value?item= NC(=O)[C@H]([18F])C[C@H](N)C(=O)O [[^18F]FGln, (2S, 4R)-4-[^18F]fluoroglutamine] &field=2-Compartment Vb returns 20

---

# System: patient-derived BT3 glioma cells
# EXPERIMENTAL PROTOCOL: 2-Compartment model, orthotopic model
# Assay type: in vivo, BALB/cOlaHsd-Foxn1^nu mouse
# ASSAY CONTEXT: Subject B glioma max.; arterial blood input
OBSERVATION TYPE: 2-Compartment Vb (%)
One number for each entry, in %.

GET /value?item= NC(=O)[C@H]([18F])C[C@H](N)C(=O)O [[^18F]FGln, (2S, 4R)-4-[^18F]fluoroglutamine] &field=2-Compartment Vb returns 13.3

---

# System: rat BT4C glioma cells
# EXPERIMENTAL PROTOCOL: 2-Compartment model, subcutaneous model
# Type: in vivo, Foxn1^nu/nu mouse
# ASSAY CONTEXT: Bone (femoral condyle) average (n = 6); arterial blood input
OBSERVATION TYPE: 2-Compartment Vb

GET /value?item= NC(=O)[C@H]([18F])C[C@H](N)C(=O)O [[^18F]FGln, (2S, 4R)-4-[^18F]fluoroglutamine] &field=2-Compartment Vb returns 5.45%

---

# Tested on: rat BT4C glioma cells
# EXPERIMENTAL PROTOCOL: 2-Compartment model, subcutaneous model
# Format: in vivo, Foxn1^nu/nu mouse
# ASSAY CONTEXT: Neck tumor average (n=6); plasma-corrected input
OBSERVATION TYPE: 2-Compartment Vb (%)
Numbers only, in %.

GET /value?item= NC(=O)[C@H]([18F])C[C@H](N)C(=O)O [[^18F]FGln, (2S, 4R)-4-[^18F]fluoroglutamine] &field=2-Compartment Vb returns 9.79
